// data source = patent US11661437B2

assay: Pharmacokinetic assay in Balb/c mice (plasma and brain tissue)
Format: in vivo
test conditions: male, Balb/c, mouse, in vivo, po, 5 mg/kg, Mean residence time MRT
result type: MRT (h)

{"compound": "C[C@@]1(O)CC[C@]2(F)C3CC[C@]4(C)[C@@H](C(=O)CNc5ccc(F)cc5F)CC[C@H]4[C@@H]3CC[C@@H]2C1 (stereo partly drawn)", "unit string": "h", "quantitative readout": 4.08}
{"compound": "C[C@@]1(O)CC[C@@]2(F)[C@H](CC[C@H]3[C@@H]4CC[C@H](C(=O)Cn5nc(C#N)cc5C#N)[C@@]4(C)CC[C@@H]32)C1", "unit string": "h", "quantitative readout": 2.36}
{"compound": "C[C@@]1(O)CC[C@@]2(F)[C@H](CC[C@H]3[C@@H]4CC[C@H](C(=O)Cn5ncnn5)[C@@]4(C)CC[C@@H]32)C1", "unit string": "h", "quantitative readout": 0.86}
{"compound": "C[C@@]1(O)CC[C@@]2(F)[C@H](CC[C@H]3[C@@H]4CC[C@H](C(=O)COc5cnc(C(F)(F)F)nc5)[C@@]4(C)CC[C@@H]32)C1", "unit string": "h", "quantitative readout": 5.54}
{"compound": "Cc1nn(CC(=O)[C@H]2CC[C@H]3[C@@H]4CC[C@@H]5C[C@](C)(O)CC[C@]5(F)[C@H]4CC[C@]23C)cc1C#N", "unit string": "h", "quantitative readout": 1.7}
{"compound": "Cc1nnn(CC(=O)[C@H]2CC[C@H]3[C@@H]4CC[C@@H]5C[C@](C)(O)CC[C@]5(F)[C@H]4CC[C@]23C)n1", "unit string": "h", "quantitative readout": 0.94}

----------
assay: Pharmacokinetic assay in Balb/c mice (plasma and brain tissue)
Assay type: in vivo
test conditions: male, Balb/c, mouse, in vivo, po, 5 mg/kg, Half-life t1/2
result type: half-life (h)

{"molecule": "C[C@@]1(O)CC[C@]2(F)C3CC[C@]4(C)[C@@H](C(=O)Cn5cc(C#N)c(Cl)n5)CC[C@H]4[C@@H]3CC[C@@H]2C1 (some centres unmarked)", "result type": "half-life", "quantitative readout": 1.93}
{"molecule": "Cc1nn(CC(=O)[C@H]2CC[C@H]3[C@@H]4CC[C@@H]5C[C@](C)(O)CC[C@]5(F)[C@H]4CC[C@]23C)cc1C#N", "result type": "half-life", "quantitative readout": 1.08}
{"molecule": "C[C@@]1(O)CC[C@]2(F)C3CC[C@]4(C)[C@@H](C(=O)CNc5ccc(F)cc5F)CC[C@H]4[C@@H]3CC[C@@H]2C1 (some centres unmarked)", "result type": "half-life", "quantitative readout": 2.57}
{"molecule": "C[C@@]1(O)CC[C@@]2(F)[C@H](CC[C@H]3[C@@H]4CC[C@H](C(=O)CNc5ccc(F)cc5)[C@@]4(C)CC[C@@H]32)C1", "result type": "half-life", "quantitative readout": 1.08}
{"molecule": "C[C@@]1(O)CC[C@@]2(F)[C@H](CC[C@H]3[C@@H]4CC[C@H](C(=O)Cn5nc(C#N)cc5C#N)[C@@]4(C)CC[C@@H]32)C1", "result type": "half-life", "quantitative readout": 1.11}
